biological target: UniProt P08183; test: Rhodamine 123 transport assay across HCT-8 cell monolayers; details: compound 10 μM; Rh123 15 μM; HCT-8 cells
Sequence (P08183 whole entry): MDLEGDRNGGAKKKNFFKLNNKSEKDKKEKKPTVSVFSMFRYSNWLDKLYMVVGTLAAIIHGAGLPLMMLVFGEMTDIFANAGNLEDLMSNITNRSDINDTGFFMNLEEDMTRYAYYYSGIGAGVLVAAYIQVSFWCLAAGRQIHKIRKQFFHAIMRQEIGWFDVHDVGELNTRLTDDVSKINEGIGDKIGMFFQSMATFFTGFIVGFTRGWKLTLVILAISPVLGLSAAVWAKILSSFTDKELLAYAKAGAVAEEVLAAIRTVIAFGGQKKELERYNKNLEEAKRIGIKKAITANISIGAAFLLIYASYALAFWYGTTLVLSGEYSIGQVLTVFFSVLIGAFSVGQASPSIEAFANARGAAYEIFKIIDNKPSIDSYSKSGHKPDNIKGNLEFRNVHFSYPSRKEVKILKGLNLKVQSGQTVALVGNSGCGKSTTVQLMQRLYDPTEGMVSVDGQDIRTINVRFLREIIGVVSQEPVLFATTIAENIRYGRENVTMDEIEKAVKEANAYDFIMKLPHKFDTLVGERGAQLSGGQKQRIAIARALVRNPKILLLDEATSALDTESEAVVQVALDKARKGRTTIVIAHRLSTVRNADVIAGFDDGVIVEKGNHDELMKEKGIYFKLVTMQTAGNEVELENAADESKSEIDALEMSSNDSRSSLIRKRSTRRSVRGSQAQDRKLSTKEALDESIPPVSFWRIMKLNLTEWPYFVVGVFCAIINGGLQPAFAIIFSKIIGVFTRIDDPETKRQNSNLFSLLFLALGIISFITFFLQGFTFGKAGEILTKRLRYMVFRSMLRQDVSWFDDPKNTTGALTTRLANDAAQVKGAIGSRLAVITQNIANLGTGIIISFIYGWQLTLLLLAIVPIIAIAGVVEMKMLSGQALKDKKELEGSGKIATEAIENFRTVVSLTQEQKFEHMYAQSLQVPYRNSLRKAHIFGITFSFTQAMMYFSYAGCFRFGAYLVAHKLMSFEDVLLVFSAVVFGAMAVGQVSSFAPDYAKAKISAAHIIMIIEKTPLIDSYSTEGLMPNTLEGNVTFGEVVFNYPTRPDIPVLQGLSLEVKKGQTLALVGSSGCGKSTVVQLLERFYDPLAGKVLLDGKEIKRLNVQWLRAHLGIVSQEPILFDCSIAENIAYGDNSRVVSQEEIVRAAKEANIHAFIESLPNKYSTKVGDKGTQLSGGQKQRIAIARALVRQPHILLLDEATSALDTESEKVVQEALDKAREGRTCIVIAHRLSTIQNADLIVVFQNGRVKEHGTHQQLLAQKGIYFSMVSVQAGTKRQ
readout-label: % Inhibition of R123 Transport

molecule="COc1ccc(N2CCN(C(=O)CC3c4cc(OC)c(OC)cc4C(c4ccc(OC)c(OC)c4)C3C(=O)N3CCN(c4ccc(OC)cc4)CC3)CC2)cc1 (stereo not drawn)" measured_value=81.5%
molecule="COc1ccc(C2c3cc(OC)c(OC)cc3C(CCNC(=O)c3ccccc3)C2CNC(=O)c2ccccc2)cc1OC (stereo not drawn)" measured_value=83.51%
molecule="CCOC(=O)N1CCN(C(=O)CC2c3cc(OC)c(OC)cc3C(c3ccc(OC)c(OC)c3)C2C(=O)N2CCN(C(=O)OCC)CC2)CC1 (stereo not drawn)" measured_value=23.1%
